Target: T1, human MSLN-FL-his protein (human, UniProt Q13421 296-580)
T1 construct: made in HEK293E cells, purified on nickel column; also called hMSLN-FL-his; human MSLN full-length protein; not shown: His tag
T1 sequence (Q13421 other isoform, or with tags, fused parts or gaps): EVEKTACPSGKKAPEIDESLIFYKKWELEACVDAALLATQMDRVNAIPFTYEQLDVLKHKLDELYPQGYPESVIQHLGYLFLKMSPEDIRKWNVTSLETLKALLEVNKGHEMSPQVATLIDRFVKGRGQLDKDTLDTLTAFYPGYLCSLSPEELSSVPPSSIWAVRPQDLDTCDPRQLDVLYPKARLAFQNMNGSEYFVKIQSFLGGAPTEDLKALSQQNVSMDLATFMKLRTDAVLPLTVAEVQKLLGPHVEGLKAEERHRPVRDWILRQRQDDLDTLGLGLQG
Assay: competitive ELISA; row F8-15.19; note: test concentration or dose not given here
Recorded competition rate values for a group of binders are listed next.
State just the number; it will be interpreted in %.

// worked examples, competition rate included
binder	competition rate / %
S009-F8-15.19 (antibody, human IgG1, kappa, V domains shown, human-murine chimeric antibody, human IgG1/kappa constant regions) VH: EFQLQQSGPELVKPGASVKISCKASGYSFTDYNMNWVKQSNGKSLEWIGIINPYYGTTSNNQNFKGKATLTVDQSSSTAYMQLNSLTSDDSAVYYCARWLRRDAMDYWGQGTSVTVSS VL: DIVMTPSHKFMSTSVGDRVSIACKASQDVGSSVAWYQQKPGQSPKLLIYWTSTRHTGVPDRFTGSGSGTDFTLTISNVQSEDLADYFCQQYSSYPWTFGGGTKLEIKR	94.1
S009-F8-31.22 (antibody, human IgG1, kappa, V domains shown, human-murine chimeric antibody, human IgG1/kappa constant regions) VH: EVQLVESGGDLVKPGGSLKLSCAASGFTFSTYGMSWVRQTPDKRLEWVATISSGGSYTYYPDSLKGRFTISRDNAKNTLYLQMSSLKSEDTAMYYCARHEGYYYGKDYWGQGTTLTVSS VL: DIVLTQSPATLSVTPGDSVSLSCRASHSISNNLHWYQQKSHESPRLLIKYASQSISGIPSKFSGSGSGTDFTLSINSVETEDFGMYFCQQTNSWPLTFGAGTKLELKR	83.2
S009-F8-18.9 (antibody, human IgG1, kappa, V domains shown, human-murine chimeric antibody, human IgG1/kappa constant regions) VH: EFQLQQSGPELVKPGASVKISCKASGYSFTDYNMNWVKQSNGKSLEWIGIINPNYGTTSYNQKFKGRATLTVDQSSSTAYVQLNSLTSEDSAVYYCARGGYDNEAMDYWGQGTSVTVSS VL: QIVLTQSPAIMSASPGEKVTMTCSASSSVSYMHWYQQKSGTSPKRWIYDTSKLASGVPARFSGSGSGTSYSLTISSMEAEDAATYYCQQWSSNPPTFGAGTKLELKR	99.5
S009-F8-12.13 (antibody, human IgG1, kappa, V domains shown, human-murine chimeric antibody, human IgG1/kappa constant regions) VH: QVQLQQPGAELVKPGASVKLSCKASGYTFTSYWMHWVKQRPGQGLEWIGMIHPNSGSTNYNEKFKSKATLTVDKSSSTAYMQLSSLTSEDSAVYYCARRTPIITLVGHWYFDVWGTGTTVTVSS VL: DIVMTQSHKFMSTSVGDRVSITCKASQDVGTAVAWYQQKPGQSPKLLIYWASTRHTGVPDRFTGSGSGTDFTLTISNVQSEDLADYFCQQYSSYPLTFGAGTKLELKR	98.5

[Q] For the binder S009-F8-19.21 (antibody, human IgG1, kappa, V domains shown, human-murine chimeric antibody, human IgG1/kappa constant regions) VH: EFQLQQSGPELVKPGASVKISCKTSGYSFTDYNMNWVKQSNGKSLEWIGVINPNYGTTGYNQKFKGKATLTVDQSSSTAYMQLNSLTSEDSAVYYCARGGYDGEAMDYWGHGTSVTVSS VL: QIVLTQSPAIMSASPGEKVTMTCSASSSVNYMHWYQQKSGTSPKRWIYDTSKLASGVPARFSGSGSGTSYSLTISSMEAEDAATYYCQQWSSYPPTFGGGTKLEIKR , report competition rate.
[A] 99.8
